Tested on: A431 cells
TEST_SUMMARY: Inhibition of A431 cell proliferation (CellTiter-Glo)
Type: cell-based
CONDITION_DETAILS: Homo sapiens, A-431, 72 h, read-out: EGFR IC50 (nM) A431
Recorded IC50 by entry
Your answer should be a plain number; it is taken to be in nM.

Look over these answered cases.
# input compound: C=CC(=O)Nc1cc(Nc2nccc(-c3cn(C)c4cc(OC)ccc34)n2)c(OC)cc1N(C)CCNC ; wanted: its IC50
88.2

Try C=CC(=O)Nc1cc(Nc2nccc(-n3cnc4ccc(OC)cc43)n2)c(OC)cc1N(C)CCN(C)C next.
149

Try C=CC(=O)Nc1cc(Nc2ncc(Cl)c(-n3nc(CC)c4cc(C#N)ccc43)n2)c(OC)cc1N(C)CCN(C)C next.
374

Try C=CC(=O)Nc1cc(Nc2ncc(Cl)c(-n3nc(C4CC4)c4cc(OC)ccc43)n2)c(OC)cc1N(C)CCN(C)C next.
101

Try C=CC(=O)Nc1cc(Nc2nccc(-n3ncc4ccc(OC)cc43)n2)c(OC)cc1N(C)CCN1CCCC1 next.
336

---
# input compound: C=CC(=O)Nc1cc(Nc2nccc(-n3cnc4cc(OC)ccc43)n2)c(OC)cc1N(C)CCN1CCCC1 ; wanted: its IC50
408
